Values from paper PMC9358681

target-or-test-system: human A2BAR (Homo sapiens, UniProt P29275)
Construct: host or cells: CHO-spap
method-notes: [3H]PSB-603 displacement on CHO-spap-hA2BAR membranes
Assay type: binding
condition-details: […] [3H]PSB-603, 2 h, 25 °C; read-out: affinity (Ki)
pKi: −log10 of the molar value.
quantity: pKi

>>> df
                                     smiles  value
0  CCCn1c(=O)c2[nH]c(-c3ccc(OCC(=O)NC4CCC4)cc3)nc2n(CCC)c1=O   4.21

====

Consider the following compounds and their measured kon readings.
target-or-test-system: human A2BAR (Homo sapiens)
Construct: host or cells: CHO-spap
Sequence (P29275 1-332): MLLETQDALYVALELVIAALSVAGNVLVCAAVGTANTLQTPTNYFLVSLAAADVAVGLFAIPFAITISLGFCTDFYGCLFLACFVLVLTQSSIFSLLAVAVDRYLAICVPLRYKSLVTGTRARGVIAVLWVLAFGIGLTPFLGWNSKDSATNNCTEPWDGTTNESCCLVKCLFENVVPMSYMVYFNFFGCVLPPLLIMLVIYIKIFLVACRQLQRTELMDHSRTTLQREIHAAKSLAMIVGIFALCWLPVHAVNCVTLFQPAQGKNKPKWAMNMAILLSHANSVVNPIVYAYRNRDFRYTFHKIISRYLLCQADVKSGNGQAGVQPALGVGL
method-notes: [3H]PSB-603 competition association assay
Assay type: binding
condition-details: read-out: kon (converted)
Description: In all radioligand binding experiments, CHO-spap-hA2BAR membranes were thawed and homogenized using an Ultra Turrax homogenizer at 24,000 rpm (IKA-Werke GmbH & Co.KG, Staufen, Germany), diluted in assay buffer to the desired concentration (10–30 μg per well or Eppendorf tube). […] Addition of CHO-spap-hA2BAR membrane aliquots initiated the association. The amount of receptor-bound radioligand was determined at different time points up to 3 hr. […]
quantity: kon

>>> print(df.to_string())
                                     smiles       target_or_test_system           value
0  CCCn1c(=O)c2[nH]c(-c3ccc(OCC(=O)NC4CC4)cc3)nc2n(CCC)c1=O  human A2BAR (Homo sapiens)  600000 M⁻¹ s⁻¹
1  CCCn1c(=O)c2[nH]c(-c3ccc(OCC(=O)NCc4ccc(O)c(O)c4)cc3)nc2n(CCC)c1=O  human A2BAR (Homo sapiens)   66700 M⁻¹ s⁻¹
2  CCCn1c(=O)c2[nH]c(-c3ccc(OCC(=O)NCc4ccc(C)cc4)cc3)nc2n(CCC)c1=O  human A2BAR (Homo sapiens)   66700 M⁻¹ s⁻¹
3  CCCn1c(=O)c2[nH]c(-c3ccc(OCC(=O)Nc4ccc(C)cc4)cc3)nc2n(CCC)c1=O  human A2BAR (Homo sapiens)  117000 M⁻¹ s⁻¹
4  CCCn1c(=O)c2[nH]c(-c3ccc(OCC(=O)NC(c4ccccc4)c4ccccc4)cc3)nc2n(CCC)c1=O  human A2BAR (Homo sapiens)   28300 M⁻¹ s⁻¹
5  CCCn1c(=O)c2[nH]c(-c3ccc(OCC(=O)Nc4ccc(C(=O)NC)cc4)cc3)nc2n(CCC)c1=O  human A2BAR (Homo sapiens)  200000 M⁻¹ s⁻¹
